ASSAY TARGET: UniProt:Q28175
Sequence (Q28175 whole entry): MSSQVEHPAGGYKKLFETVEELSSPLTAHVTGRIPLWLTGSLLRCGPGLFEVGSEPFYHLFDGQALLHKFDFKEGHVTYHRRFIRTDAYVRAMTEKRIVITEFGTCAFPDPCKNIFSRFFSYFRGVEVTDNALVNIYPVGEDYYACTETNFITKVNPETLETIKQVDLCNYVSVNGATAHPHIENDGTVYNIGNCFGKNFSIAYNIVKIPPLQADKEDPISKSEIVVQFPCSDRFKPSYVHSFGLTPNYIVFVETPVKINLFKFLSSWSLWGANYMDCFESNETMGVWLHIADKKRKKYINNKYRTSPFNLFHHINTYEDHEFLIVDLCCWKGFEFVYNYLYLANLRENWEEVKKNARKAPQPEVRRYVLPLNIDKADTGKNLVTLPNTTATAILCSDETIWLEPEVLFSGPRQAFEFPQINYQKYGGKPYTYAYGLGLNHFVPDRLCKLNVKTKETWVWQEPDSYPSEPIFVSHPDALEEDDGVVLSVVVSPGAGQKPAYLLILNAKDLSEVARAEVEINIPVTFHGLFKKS
EXPERIMENTAL PROTOCOL: Inhibition of RPE65 in bovine RPE microsomes assessed as reduction in 11-cis-retinol production using all-trans-retinol as substrate pre-incubated with enzyme for 5 mins followed by further incubation with all-trans-retinol for 1 hr by normal phase HPLC analysis
Design: species or system Retina, Microsome
ASSAY READOUT: pEC50
Value format note: pEC50 is -log10 of concentration (mol/L); just state the number.

query: Data request, read-out pEC50, for NCCC(O)c1cccc(OCC(CCCF)CCCF)c1 (racemic)
result: 6.78

query: Then what about the compound NCCC(O)c1cccc(OCC(CCCF)CCCF)c1 (stereo in doubt; 14) ?
result: 6.71

query: Then what about the compound CC1=C(COc2cccc([C@H](O)CCN)c2)C(C)(C)CCC1 ?
result: 6.49
